- System: Cladosporium herbarum
- assay text: Antifungal activity against Cladosporium herbarum assessed as inhibition at 50 nmol in 8 mm disk
- Type: functional

{"compound": "CC(C)=CC[C@@H](OC(=O)CC(C)(C)O)C1=CC(=O)c2c(O)ccc(O)c2C1=O [BETA-HYDROXYISOVALERYLSHIKONIN]", "diameter of the inhibition zone (DIZ)": "13.8 mm"}
{"compound": "CCC(=O)O[C@H](CC=C(C)C)C1=CC(=O)c2c(O)ccc(O)c2C1=O", "diameter of the inhibition zone (DIZ)": "11.3 mm"}
{"compound": "CC(=O)O[C@H](CC=C(C)C)C1=CC(=O)c2c(O)ccc(O)c2C1=O", "diameter of the inhibition zone (DIZ)": "13 mm"}
{"compound": "CC(C)=CC[C@@H](O)C1=CC(=O)c2c(O)ccc(O)c2C1=O", "diameter of the inhibition zone (DIZ)": "13.4 mm"}

* * *

- System: Cladosporium herbarum
- assay text: Antifungal activity against Cladosporium herbarum assessed as inhibition at 1250 nmol in 8 mm disk
- Assay type: functional

{"molecule": "CC(=O)O[C@H](CC=C(C)C)C1=CC(=O)c2c(O)ccc(O)c2C1=O", "diameter of the inhibition zone (DIZ), mm": 13.4}
{"molecule": "CC(C)=CC[C@@H](O)C1=CC(=O)c2c(O)ccc(O)c2C1=O", "diameter of the inhibition zone (DIZ), mm": 15.9}
{"molecule": "CCC(=O)O[C@H](CC=C(C)C)C1=CC(=O)c2c(O)ccc(O)c2C1=O", "diameter of the inhibition zone (DIZ), mm": 15.1}
{"molecule": "CC(C)=CC[C@@H](OC(=O)CC(C)(C)O)C1=CC(=O)c2c(O)ccc(O)c2C1=O [BETA-HYDROXYISOVALERYLSHIKONIN]", "diameter of the inhibition zone (DIZ), mm": 17.6}

All values here come from ChEMBL document CHEMBL3046888.
